Tested on: skin melanocytes
Test: Chloasma model of guinea pig: pathomorphological observation of skin melanocytes
Format: in vivo
Settings: 0.25% cream once a day, 30 days
Measured Number of melanocytes accompanies every entry in the list below.

O=C(c1ccc(-n2nnc3cccnc32)cc1)N(c1ncccc1Cl)C1CCCC(O)C1 (stereo not shown)    2.45 ± 0.67
CNC1CCCC(N(C(=O)c2ccc(-n3nnc4cccnc43)cc2)c2ncccc2Cl)C1 (stereo not shown)    2.13 ± 0.61
NC1CCCC(N(C(=O)c2ccc(-n3nnc4cccnc43)cc2)c2ncccc2Cl)C1 (stereo not shown)    1.98 ± 0.56

Read the next record carefully.
Ask: Data request, read-out Number of melanocytes, for CCN1CCC[C@@H](N(C(=O)c2ccc(-n3nnc4cccnc43)cc2)c2ncccc2Cl)C1
Result: 1.75 ± 0.53

Ref: patent US20240300945A1
